- experimental.target: Innovin, lyophilized recombinant human tissue factor combined with phospholipids (human, UniProt P13726 33-295, limits assumed); further: test concentration or dose not given here
- assay.details: cell-based or functional assay
What T½ Max (seconds), coagulation of human plasma was measured for each of the following?
Give a bare numeral; the unit s is implied.

Look at this binder and give its reported T½ Max (seconds), coagulation of human plasma. M11 (antibody, V domains shown, complete MAb; FR4 is its own entry; also called H15/L4) VH: EVQLVQSGAEVKKPGESLRISCKGSGYTFITYWIEWVRQMPGKGLEWMGDILPGSGSTNYNENFKGHVTISADKSISTAYLQWSSLKASDTAMYYCARSGYYGNSGFAYWGQGTLVTVSS VL: DIVMTQSPLSLPVTPGEPASISCKSSQSLLSSGNQKNYLTWYLQKPGQSPQLLIYWASTRESGVPDRFSGSGSGTDFTLKISRVEAEDVGVYYCQNDYTYPLTFGQGTKLEIK
195

Look at this binder and give its reported T½ Max (seconds), coagulation of human plasma. M1585 (antibody, V domains shown, complete MAb; FR4 is its own entry; also called H139/L3) VH: EVQLVQSGAEVKKPGESLRISCKGSGYTFSPFWIEWVRQMPGKGLEWMGDIIPGTGYTNYSPSFQGHVTISADKSISTAYLQWSSLKASDTAMYYCARSGYYGNSGFAYWGQGTLVTVSS VL: DIVMTQTPLSLPVTPGEPASISCKSSQSLLSSGNQKNYLTWYLQKPGQSPQLLIYWASTRESGVPDRFSGSGSGTDFTLKISRVEAEDVGVYYCQNDYTYPLTFGQGTKLEIK
205

Look at this binder and give its reported T½ Max (seconds), coagulation of human plasma. M1613 (antibody, V domains shown, complete MAb; FR4 is its own entry; also called H136/L3) VH: EVQLVQSGAEVKKPGESLRISCKGSGYTFSSHWIEWVRQMPGKGLEWMGDILPGSGFTHYSPSFQGHVTISADKSISTAYLKWSSLKASDTAMYYCARSGYYGNSGFAYWGQGTLVTVSS VL: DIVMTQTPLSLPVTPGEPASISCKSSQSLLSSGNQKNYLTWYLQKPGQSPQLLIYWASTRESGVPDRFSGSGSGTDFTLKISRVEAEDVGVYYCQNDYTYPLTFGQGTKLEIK
165

Look at this binder and give its reported T½ Max (seconds), coagulation of human plasma. M1595 (antibody, V domains shown, complete MAb; FR4 is its own entry; also called H160/L3) VH: EVQLVQSGAEVKKPGESLRISCKGSGYTFYPYWIEWVRQMPGKGLEWMGDILPGTGFTNYSPSFQGHVTISADKSISTAYLQWSSLKASDTAMYYCARSGYYGNSGFAYWGQGTLVTVSS VL: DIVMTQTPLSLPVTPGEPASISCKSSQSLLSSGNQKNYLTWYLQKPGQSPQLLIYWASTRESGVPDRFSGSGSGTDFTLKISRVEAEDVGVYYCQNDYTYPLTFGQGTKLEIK
163

Look at this binder and give its reported T½ Max (seconds), coagulation of human plasma. M1612 (antibody, V domains shown, complete MAb; FR4 is its own entry; also called H133/L3; TF7M1612) VH: EVQLVQSGAEVKKPGESLRISCKGSGYTFNPYWIEWVRQMPGKGLEWMGDILPGTGYTNYSPSFQGHVTISADKSISTAYLQWSSLKASDTAMYYCARSGYYGNSGFAYWGQGTLVTVSS VL: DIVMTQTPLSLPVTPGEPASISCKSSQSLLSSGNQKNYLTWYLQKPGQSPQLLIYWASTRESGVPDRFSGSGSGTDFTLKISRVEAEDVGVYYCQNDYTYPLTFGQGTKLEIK
163

Look at this binder and give its reported T½ Max (seconds), coagulation of human plasma. murine antibody 10H10 (antibody, V domains shown) VH: QVHLQQSGAELMKPGASVKISCKASGYTFITYWIEWVKQRPGHGLEWIGDILPGSGSTNYNENFKGKATFTADSSSNTAYMQLSSLTSEDSAVYYCARSGYYGNSGFAYWGQGTLVTVSA VL: DIVMTQSPSSLTVTAGEKVTMSCKSSQSLLSSGNQKNYLTWYQQIPGQPPKLLIYWASTRESGVPDRFTGSGSGTDFTLTINSVQAEDLAVYYCQNDYTYPLTFGAGTKLELK
191

Look at this binder and give its reported T½ Max (seconds), coagulation of human plasma. M1606 (antibody, V domains shown, complete MAb; FR4 is its own entry; also called H181/L3) VH: EVQLVQSGAEVKKPGESLRISCKGSGYTFIPHWIEWVRQMPGKGLEWMGDILPGSGWTNYSPSFQGHVTISADKSISTAYLQWSSLKASDTAMYYCARSGYYGNSGFAYWGQGTLVTVSS VL: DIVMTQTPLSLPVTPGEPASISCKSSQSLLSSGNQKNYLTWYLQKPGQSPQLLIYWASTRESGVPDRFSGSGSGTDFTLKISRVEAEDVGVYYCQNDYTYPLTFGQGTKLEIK
157

Look at this binder and give its reported T½ Max (seconds), coagulation of human plasma. M1639 (antibody, V domains shown, complete MAb; FR4 is its own entry; also called H22/L320) VH: EVQLVQSGAEVKKPGESLRISCKGSGYTFITYWIEWVRQMPGKGLEWMGDILPGSGSTNYSPSFQGHVTISADKSISTAYLQWSSLKASDTAMYYCARSGYYGNSGFAYWGQGTLVTVSS VL: DIVMTQTPLSLPVTPGEPASISCKSSQSLLYSGNQRNYLTWYLQKPGQSPQLLIYWASTRSSGVPDRFSGSGSGTDFTLKISRVEAEDVGVYYCQNDDTYPMTFGQGTKLEIK
167

Look at this binder and give its reported T½ Max (seconds), coagulation of human plasma. M10 (antibody, V domains shown, complete MAb; FR4 is its own entry; also called H15/L3) VH: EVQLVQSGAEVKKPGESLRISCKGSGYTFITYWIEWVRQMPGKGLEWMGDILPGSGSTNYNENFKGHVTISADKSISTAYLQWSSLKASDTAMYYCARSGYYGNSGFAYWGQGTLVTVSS VL: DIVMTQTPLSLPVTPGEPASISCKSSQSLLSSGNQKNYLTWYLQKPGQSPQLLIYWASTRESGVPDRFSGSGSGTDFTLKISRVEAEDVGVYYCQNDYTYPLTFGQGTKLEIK
196

Look at this binder and give its reported T½ Max (seconds), coagulation of human plasma. M37 (antibody, V domains shown, complete MAb; FR4 is its own entry; also called H19/L2) VH: QVQLVQSGAEVKKPGSSVKVSCKASGYTFITYWIEWVRQAPGQGLEWMGDILPGSGSTNYNENFKGRVTITADESTSTAYMELSSLRSEDTAVYYCARSGYYGNSGFAYWGQGTLVTVSS VL: DIVMTQSPDSLAVSLGERATINCKSSQSLLSSGNQKNYLTWYQQKPGQPPKLLIYWASTRESGVPDRFSGSGSGTDFTLTISSLQAEDVAVYYCQNDYTYPLTFGQGTKLEIK
196
